From: a melting point compilation (Tetko et al.; mined from patent text by program, amines drawn as free bases though some values may be those of a salt)

molecule: O=C(O)C1=Cc2c(Cl)ccc(Cl)c2OC1C(F)(F)F (stereo not given)
melting point: 206 to 207 °C

molecule: CC(C)NC(=O)OCC(=O)c1ccc(-c2ccccc2)cc1
melting point: 133 to 134 °C

molecule: C#CC12CC3CC(CC(C3)C1)C2
melting point: 80 to 82 °C

molecule: CCc1ccc(OCCCN2CCC(C(O)(c3ccc(F)cc3)c3ccc(F)cc3)CC2)c(OC)c1
melting point: 118 to 120 °C

molecule: COc1c(N2CC[C@@H](C3(NCCO)CC3)C2)c(F)cc2c(=O)c(C(=O)O)cn([C@@H]3C[C@@H]3F)c12
melting point: 153 to 155 °C

---

Listed here are compounds together with their documented melting point.

compound: COc1ccc(-c2ccc(C(=O)O)cc2)cc1F
melting point: 253 °C

compound: O=C(O)CCc1ccc(NC(=O)C(COC2CCCCO2)NS(=O)(=O)c2ccc(Cl)cc2)cc1 (racemic)
melting point: 150 to 151 °C

compound: Cc1cc(N2C=C3C(c4ccccc4)=C(OCc4ncn(C)n4)NN3C=N2)no1
melting point: 194 to 196 °C

compound: O=c1oc(-c2ccccc2)cc(O)c1SCCCCc1ccccc1
melting point: 103 to 105 °C

compound: Cc1cc(N2C(=O)c3ccccc3C2=O)c(C)cc1N
melting point: 167 to 169 °C

compound: CCOC(=O)C(=CNc1cccc(-c2ccncc2)c1)C(C)=O
melting point: 107 to 108 °C

compound: CC(=O)N1CCN(C(=O)c2nc(-c3ccccc3)c(-c3ccc(=O)n(C(C)C)n3)s2)CC1
melting point: 78 to 82 °C

compound: O=C(O)C1CCC(c2ccc(Cl)cc2)n2c(=O)n(CCS)c(=O)n21 (centres undefined)
melting point: 189 to 190 °C

compound: CCCCOc1cc(CCC(=O)O)ccc1-c1cccc(N(C)C(=O)Nc2ccccc2)c1
melting point: 134 to 136 °C

---

quantity: melting point

molecule: CS(=O)(=O)c1ccc(-c2cccn2-c2ccc(Cl)cc2)cc1
quantity: melting point
meas-value: 184 to 188 °C
--
molecule: NC(=O)c1[nH]c2ccc(Cl)cc2c1S(=O)(=O)c1ccc(Cl)cc1
quantity: melting point
meas-value: 275 to 277 °C
--
molecule: O=C1c2c(O)cccc2C(Sc2ccccc2)c2cccc(O)c21
quantity: melting point
meas-value: 156 to 157 °C
--
molecule: Cc1cn(C2OC(CO)C(O)C2O)c(=S)[nH]c1=O (stereo unspecified)
quantity: melting point
meas-value: 206 to 208 °C
--
molecule: O=C1NC(=O)C(=Cc2ccc(S(=O)(=O)CCCc3ccccc3)cc2)S1
quantity: melting point
meas-value: 224 to 225 °C
--
molecule: Cn1c(CO)nc2ccc(Cl)nc21
quantity: melting point
meas-value: 204 to 210 °C
--
molecule: O=C(CS(=O)c1ccc(Cl)cc1)c1ccccc1 (stereo unspecified)
quantity: melting point
meas-value: 129 to 130 °C
--
molecule: COc1ccc(C2CC(O)CCC2[N+](=O)[O-])cc1OC (stereo unspecified)
quantity: melting point
meas-value: 126 to 127 °C
--
molecule: COc1cccc(CC(=O)O)c1OCCc1cn(-c2ccc(C(F)(F)F)cn2)nc1C(C)C
quantity: melting point
meas-value: 165 to 166 °C
--
molecule: Fc1cc(F)cc(-c2nc(-c3ccccn3)no2)c1
quantity: melting point
meas-value: 115 to 119 °C
--
molecule: CC1(C)Oc2cc3nc(S)[nH]c3cc2O1
quantity: melting point
meas-value: > 300 °C

---

compound: CN(C)C(=O)[C@H]1C[C@H]1C(=O)N(C)C
melting point: 103 to 104 °C
//
compound: OC(COc1ccc(-c2ccccc2Br)cc1)CN1CCCC1 (stereo not given)
melting point: 70 to 72 °C
//
compound: C=C(c1cn(-c2c(Cl)cc(C(F)(F)F)cc2Cl)nc1C#N)C(F)(F)C(F)(F)F
melting point: 107 to 108 °C
//
compound: CCC(C)NS(=O)(=O)c1ccc(N)c(C(=O)N2CCN(C)CC2)c1 (stereo not given)
melting point: 130 to 132 °C
//
compound: CCOC(=O)COc1cccc(-c2n[nH]c3c2Cc2ccccc2-3)c1
melting point: 134 to 136 °C
//
compound: COc1cc(C(=O)c2ccnc3ccccc23)ccc1O
melting point: 190 to 192 °C
//
compound: CC1(C)C(=O)C(C)(C)c2cc3[nH]c(S)nc3cc21
melting point: > 300 °C
//
compound: CC1CCCN(c2nc(-n3cncn3)nc(Cl)c2-c2c(F)cc(F)cc2F)O1 (stereo not given)
melting point: 141 to 143 °C
//
compound: COc1cc2c(cc1OC)-c1[nH]c3ccc(O)cc3c1C2=O
melting point: > 260 °C
//
compound: O=C1c2ccccc2S(=O)(=O)N1CCCCCCOc1ccccc1
melting point: 64 to 66 °C

---

quantity: melting point

molecule: Cc1nnc2n1-c1sc(CC(=O)N3CCCCC3)cc1C(c1ccccc1Cl)=NC2C (stereo not given)
meas-value: 182 to 183 °C

molecule: Cn1c(=O)c2c(-c3ccccc3)n(-c3cc([N+](=O)[O-])ccc3N)cc2n(C)c1=O
meas-value: > 300 °C

molecule: CSc1nn2c(N3CCN(C)CC3)cc(C)nc2c1S(=O)(=O)c1ccccc1
meas-value: 209 to 210 °C

molecule: CC12CCC3c4ccc(C(=O)O)cc4CCC3C1CCC2C(=O)c1ccc(F)cc1 (stereo not given)
meas-value: 251 to 254 °C

molecule: COC(=O)c1cc(=O)c2oc3ccc(Cl)cc3c(=O)c2n1C
meas-value: 276 to 278 °C

molecule: CCCCc1ccc2nc(C(=O)OCC)cc(Cl)c2c1
meas-value: 54.5 to 56 °C

molecule: S=c1nc(-c2ccc(Br)cc2)[nH]n1Cc1ccccc1
meas-value: 250 to 251 °C

molecule: COCCn1cc(C(=O)C(F)(F)F)c2c(Cl)cccc21
meas-value: 57 to 59 °C

molecule: Cc1cc(C)n(C(=O)CCl)n1
meas-value: 62 °C

molecule: Fc1cccc(F)c1-c1nccc(-c2ccc(Br)cc2)n1
meas-value: 130 to 131 °C

---

# melting point annotations

molecule: O=C(COc1ccccc1)N[C@@H](Cc1ccccc1)C(=O)CSCc1ccsc1
melting point: 80 to 81 °C
--
molecule: C[C@@H]1S[C@@H](C(=O)Nc2ccc(CN3CCCC3)cc2)Cc2cc3c(cc2C1=O)OCO3
melting point: 186 to 188 °C
--
molecule: CC(C)n1cnc2c(Nc3ccccn3)nc(F)nc21
melting point: 150 to 152 °C
--
molecule: O=C(c1ccc([N+](=O)[O-])c(O)c1)N1CCOCC1
melting point: 106 °C
--
molecule: O=C(Nc1ccncc1)OC1CN2CCC1CC2 (configuration not stated)
melting point: 149 to 151 °C
--
molecule: CS(=O)(=O)N(Cc1cccnc1)c1ccccc1
melting point: 104 to 105 °C
--
molecule: CC(C)(C)OC(=O)[C@@H]1CCCN1C(=O)CCC(=O)c1ccc(Br)cc1
melting point: 70 to 71 °C
--
molecule: COC(=O)c1c(C2=CC(=O)c3cccc(O)c3C2=O)c(C)n(C)c1C
melting point: 178 to 180 °C
--
molecule: CN(C)C(=N)Nc1ccccc1-c1cccc(S(C)(=O)=O)c1
melting point: 113 to 114 °C
--
molecule: CCCCCCCCCCCc1nc2c(O)c(Cl)cc(Cl)c2cc1CCCCCCCCCC
melting point: 46 to 47 °C
--
molecule: CN1CCN(Cc2ccc3n2Cc2ccccc2SC3c2ccccc2)CC1 (configuration not stated)
melting point: 161 to 162 °C
--
molecule: COc1ccc2c(c1Cl)c(CC(=O)O)c(C)n2C(=O)c1ccc(Cl)s1
melting point: 169 °C
--
molecule: N#Cc1c(N2CCCC2)cc(-c2ccccc2)c2c1Cc1ccccc1-2
melting point: 210 to 212 °C
--
molecule: Cc1sc(C)c(CCl)c1CCl
melting point: 68 to 70 °C
--
molecule: Oc1ccc(-c2cc3cc(Cl)cc(Cl)c3o2)cc1
melting point: 184 to 186 °C
--
molecule: N#Cc1c(O)c2sccc2[nH]c1=O
melting point: > 300 °C
--
molecule: Cc1ccccc1C(=O)NCN1CCN(c2ncccc2C#N)CC1
melting point: 124 to 127 °C
--
molecule: CCCCNC(=S)c1ccc2c(c1)N(C(C)CN(C)C)c1ccccc1S2 (racemic)
melting point: 154 °C
--
molecule: CCNC(=O)c1ccc(F)c(Cl)c1
melting point: 102 °C
--
molecule: N#Cc1csc(-c2csc(C(O)(Cn3cncn3)c3ccc(F)cc3F)c2)n1 (configuration not stated)
melting point: 172 to 173 °C
--
molecule: C#CC(Cc1ccc(OC)c(OC2CCCC2)c1)C(=O)O (configuration not stated)
melting point: 109 to 110 °C
--
molecule: CCOC(=O)Cn1nc(-c2ccccc2O)nc1-c1ccccc1O
melting point: 172 to 174 °C
